Tested on: A121
Test Details: Cytotoxicity against human A121 ovarian cells
Type: functional, cell-based
Each entry below carries its reported IC50.
Express your answer in nM, writing the number without its unit.

See these solved cases before continuing.
{"Molecule": "CC(=O)O[C@H]1C(=O)[C@@]2(C)C([C@H](OC(=O)c3ccccc3)[C@]3(O)C[C@H](OC(=O)[C@H](O)[C@H](C=C(C)C)NC(=O)c4ccccc4)C(C)=C1C3(C)C)[C@]1(OC(C)=O)CO[C@@H]1C[C@@H]2O (some centres undefined)", "IC50, nM": 1.4}
{"Molecule": "CC(=O)O[C@H]1C(=O)[C@@]2(C)C([C@H](OC(=O)c3ccccc3)[C@]3(O)C[C@H](OC(=O)[C@H](O)[C@H](CC(C)C)NC(=O)OC(C)(C)C)C(C)=C1C3(C)C)[C@]1(OC(C)=O)CO[C@@H]1C[C@@H]2O (some centres undefined)", "IC50, nM": 3.8}
{"Molecule": "C/C=C/[C@H](NC(=O)OC(C)(C)C)[C@@H](O)C(=O)O[C@H]1C[C@@]2(O)[C@@H](OC(=O)c3ccccc3)C3[C@](C)(C(=O)[C@H](OC(C)=O)C(=C1C)C2(C)C)[C@@H](O)C[C@H]1OC[C@@]31OC(C)=O (some centres undefined)", "IC50, nM": 0.9}

// moving on: another record for IC50
What the record says about CC(=O)O[C@@]12CO[C@@H]1C[C@H](O)[C@@]1(C)C(=O)[C@H](O)C3=C(C)[C@@H](OC(=O)[C@H](O)[C@H](CC(C)C)NC(=O)OC(C)(C)C)C[C@@](O)([C@@H](OC(=O)c4ccccc4)C12)C3(C)C (some centres undefined) : IC50 is 1.9

---

Below, each entry is listed with its recorded IC50.
System: MCF7
Test Details: Cytotoxicity against human breast MCF-7 cancer cell lines
Type: functional, cell-based
A complete answer gives the number followed by the unit.

# count of solved cases: 3
{"Molecule": "CC(=O)O[C@H]1C(=O)[C@@]2(C)C([C@H](OC(=O)c3ccccc3)[C@]3(O)C[C@H](OC(=O)[C@H](O)[C@H](C=C(C)C)NC(=O)c4ccccc4)C(C)=C1C3(C)C)[C@]1(OC(C)=O)CO[C@@H]1C[C@@H]2O (some centres undefined)", "Recorded Result": "0.54 nM"}
{"Molecule": "CC(=O)O[C@@]12CO[C@@H]1C[C@H](O)[C@@]1(C)C(=O)[C@H](O)C3=C(C)[C@@H](OC(=O)[C@H](O)[C@H](CC(C)C)NC(=O)OC(C)(C)C)C[C@@](O)([C@@H](OC(=O)c4ccccc4)C12)C3(C)C (some centres undefined)", "Recorded Result": "0.55 nM"}
{"Molecule": "C/C=C/[C@H](NC(=O)OC(C)(C)C)[C@@H](O)C(=O)O[C@H]1C[C@@]2(O)[C@@H](OC(=O)c3ccccc3)C3[C@](C)(C(=O)[C@H](OC(C)=O)C(=C1C)C2(C)C)[C@@H](O)C[C@H]1OC[C@@]31OC(C)=O (some centres undefined)", "Recorded Result": "0.51 nM"}

# ---- query molecule ----
Please fill in: IC50 reported for CC(=O)O[C@H]1C(=O)[C@@]2(C)C([C@H](OC(=O)c3ccccc3)[C@]3(O)C[C@H](OC(=O)[C@H](O)[C@H](CC(C)C)NC(=O)OC(C)(C)C)C(C)=C1C3(C)C)[C@]1(OC(C)=O)CO[C@@H]1C[C@@H]2O (some centres undefined) = 4 nM
